PROCEDURE_TEXT: self-splicing fitness, log relative to wild type (ln ratio); higher = more splicing; Tetrahymena group I intron in knt gene, E. coli kanamycin selection, DiMSum; sequences stand for … in CUCUCU…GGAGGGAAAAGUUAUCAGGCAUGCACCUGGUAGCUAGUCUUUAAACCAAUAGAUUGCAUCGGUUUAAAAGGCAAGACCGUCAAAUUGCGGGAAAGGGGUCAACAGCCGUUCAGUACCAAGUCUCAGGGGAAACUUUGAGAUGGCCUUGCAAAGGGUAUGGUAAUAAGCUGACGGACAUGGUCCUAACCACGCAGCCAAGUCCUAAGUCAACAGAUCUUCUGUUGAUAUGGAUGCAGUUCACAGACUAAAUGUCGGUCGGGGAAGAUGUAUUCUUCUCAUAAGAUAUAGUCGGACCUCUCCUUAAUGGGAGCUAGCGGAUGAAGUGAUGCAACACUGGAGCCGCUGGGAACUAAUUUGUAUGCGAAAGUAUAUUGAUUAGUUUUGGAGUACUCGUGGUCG;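 note: selection with 25 µg/mL kanamycin versus none on LB agar overnight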
ASSAY_CONDITIONS: 30 °C
# binarize self-splicing fitness (ln): threshold -3 inclusive, high side true (1), low side false (0)

Can `UUAGAGCAAUAUUACGAUGG` be said to have self-splicing fitness (ln) at or above -3? true (1)

Can `UGGCAGCAAUAUUACGUAUC` be said to have self-splicing fitness (ln) at or above -3? false (0)

Can `UCGCAGCAAUAUUACGGAGA` be said to have self-splicing fitness (ln) at or above -3? true (1)

Can `UCGCAGCAAUAUUACGUUCU` be said to have self-splicing fitness (ln) at or above -3? false (0)

Can `GGCGAGCAAUAUUACGGCUU` be said to have self-splicing fitness (ln) at or above -3? true (1)

More entries:
Can `ACGAAGCAAUAUUACGGCAA` be said to have self-splicing fitness (ln) at or above -3? true (1)

Can `UAGUAGCAAUAUUACGCACU` be said to have self-splicing fitness (ln) at or above -3? true (1)

Can `GUCCAGCAAUAUUACGCCAG` be said to have self-splicing fitness (ln) at or above -3? false (0)

Can `ACCUAGCAAUAUUACGAAGA` be said to have self-splicing fitness (ln) at or above -3? true (1)

====

self-splicing fitness (ln) values for the sequences below.
PROCEDURE_TEXT: self-splicing fitness, log relative to wild type (ln ratio); higher = more splicing; Tetrahymena group I intron in knt gene, E. coli kanamycin selection, DiMSum; sequences stand for … in CUCUCU…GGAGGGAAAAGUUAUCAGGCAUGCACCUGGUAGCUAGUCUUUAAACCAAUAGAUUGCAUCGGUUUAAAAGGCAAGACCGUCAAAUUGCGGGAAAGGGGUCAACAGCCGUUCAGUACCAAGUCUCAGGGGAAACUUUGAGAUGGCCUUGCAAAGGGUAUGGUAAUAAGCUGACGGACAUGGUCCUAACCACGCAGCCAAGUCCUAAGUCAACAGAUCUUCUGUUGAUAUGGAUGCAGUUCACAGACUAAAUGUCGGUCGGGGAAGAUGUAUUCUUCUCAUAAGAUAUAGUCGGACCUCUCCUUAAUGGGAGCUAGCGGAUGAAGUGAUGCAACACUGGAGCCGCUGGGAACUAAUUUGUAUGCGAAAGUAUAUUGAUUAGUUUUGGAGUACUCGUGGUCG
ASSAY_CONDITIONS: 37 °C
Answer with a number only.

Below: 4 sequences and their reported self-splicing fitness (ln).
Give the reported self-splicing fitness (ln) for this sequence. `CCUUAGCAAUAUUACGUGGU` -1.91

Give the reported self-splicing fitness (ln) for this sequence. `CGUCAGCAAUAUUACGGAAG` 0.304

Give the reported self-splicing fitness (ln) for this sequence. `ACUCAGCAAUAUUACGAGGG` -1.41

Give the reported self-splicing fitness (ln) for this sequence. `UCGAAGCAAUAUUACGCUUC` -2.38

More entries:
Give the reported self-splicing fitness (ln) for this sequence. `AUUGAGCAAUAUUACGGGGG` -3.19

Give the reported self-splicing fitness (ln) for this sequence. `CUGCAGCAAUAUUACGUAGU` -2.5

Give the reported self-splicing fitness (ln) for this sequence. `CGAAAGCAAUAUUACGCUUC` -2.01

Give the reported self-splicing fitness (ln) for this sequence. `GUCUAGCAAUAUUACGCGUA` 0.391

Give the reported self-splicing fitness (ln) for this sequence. `CGCAAGCAAUAUUACGACAC` -0.474

Give the reported self-splicing fitness (ln) for this sequence. `UUCGAGCAAUAUUACGCAGU` -1.61

Give the reported self-splicing fitness (ln) for this sequence. `GUGGAGCAAUAUUACGUCUU` -2.36

Give the reported self-splicing fitness (ln) for this sequence. `UAAAAGCAAUAUUACGCAGC` -2.47
